- Tested on: SN12C renal
- method summary: NCI tumour cell line growth inhibition, 48 h
measure: TGI

Fill blank: measured TGI of the compound "N#Cc1ccc(C(c2ccc(C#N)cc2)n2cncn2)cc1" is ____. > 5000 µM

Fill blank: measured TGI of the compound COC12CC(=O)C(C(C)=O)=C(O)C1(C)c1c(OC(C)=O)c(C)c(O)c(C(C)=O)c1O2 (stereo not given) is ____. 64.7 µM

Fill blank: measured TGI of the compound "COc1ccc(C(=O)c2cc3c(N)c(C(=O)Nc4cccc(Cl)c4C)sc3nc2C)cc1" is ____. > 25 µM

Fill blank: measured TGI of the compound "Cc1ccc(S(=O)(=O)NC(=O)Nc2ccc(S(N)(=O)=O)cc2S(N)(=O)=O)cc1" is ____. > 100 µM

Fill blank: measured TGI of the compound "C#CCOc1cccc(Nc2ncnc3ccc(NC(=O)CCl)cc23)c1" is ____. > 79.8 µM

Fill blank: measured TGI of the compound CCCCCCCN1C(=O)C(O)(c2ccc(C3(O)C(=O)N(CCCCCCC)c4ccccc43)s2)c2ccccc21 (stereo not given) is ____. 3.42 µM

Fill blank: measured TGI of the compound "COc1cccc2[nH]c(-c3ccccn3)nc12" is ____. > 100 µM

Fill blank: measured TGI of the compound "O=[N+]([O-])c1ccc(Sc2c3ccccc3nc3ccccc23)nc1" is ____. 29.6 µM

Fill blank: measured TGI of the compound "COc1ccc(Cn2cc3c(c2-c2cc(OC)c(OC)c(OC)c2)CCc2cnoc2-3)cc1[N+](=O)[O-]" is ____. > 100 µM

Fill blank: measured TGI of the compound "COc1ccc(Cc2nccc3cc(OC)c(OC)cc23)cc1OC" is ____. > 100 µM
